# system: human chorionic gonadotropin (hCG) heterodimer (Homo sapiens, UniProt P01215;P0DN86 P01215:25-116,P0DN86:21-165)
# Sequence (P01215 25-116, chain 1 of 2, other chains not shown): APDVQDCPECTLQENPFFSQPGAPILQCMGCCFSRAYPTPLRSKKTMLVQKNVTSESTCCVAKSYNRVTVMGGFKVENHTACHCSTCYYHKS
# procedure details: filter; 5.8 +/- 2.8 nM in Table 5
# applied conditions: tags: Calbiochem or Vitro Diagnostics (14,000 IU/mg); chain copies: alpha/beta heterodimer (stated); label: 32P; G4 (RNase T1 protection in K+)
measured parameter: pKd
// field semantics: pKd = negative decimal log of concentration (mol/L)

Recorded pKd of H-25 (ssRNA, 2'-NH2 all pyrimidines) RNA: GGGAGGACGAUGCGGAAAGGAGGAGGCUGGGUGCGUCAAGAGUUCUCCCGAGCGCCAGACGACUCGCCCGA , please.
8.22
